In this section we review reported protein stability index values for a set of variants.
B1: ZC3H15 (parent)
chain: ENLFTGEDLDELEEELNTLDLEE

Variants of: B1
Assay: protein stability index of a GFP-peptide fusion (GPS, HEK-293T) (PSI 1-6); higher = more stable;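 also: lentivirally expressed fusions sorted by FACS into six bins by GFP to DsRed ratio, PSI derived from sequencing read proportions per bin multiplied by bin number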
Settings: c terminus: native

# example entries with known answers
# SEQ_STRING, protein stability index
rows = [
    ("ENLFTGEDLFELEEELNTLDLEE [D10F]", 4.12),
    ("ENLFTGEDLDELETELNTLDLEE [E14T]", 4.12),
    ("ENLFTGEDLDELTEELNTLDLEE [E13T]", 4.6),
    ("ENLFCGEDLDELEEELNTLDLEE [T5C]", 5.08),
    ("ENLFTGEDLDELEEELNLLDLEE [T18L]", 4.96),
    ("ENLFTGEDLRELEEELNTLDLEE [D10R]", 5.07),
    ("ENLFTGEDGDELEEELNTLDLEE [L9G]", 4.03),
    ("ENLFTGEDSDELEEELNTLDLEE [L9S]", 4.49),
]

Query block: # query: protein stability index of entry ENLFTGEDLDELEEELNTADLEE [L19A]
Result block: 4.58

Query block: Report protein stability index for ENEFTGEDLDELEEELNTLDLEE [L3E] please.
Result block: 4.08

Query block: Entry ENLFTGEDNDELEEELNTLDLEE [L9N] : reported protein stability index = ?
Result block: 4.1

Query block: Could you tell me which protein stability index is on file for ENLFTGEDLDELEEELNTLDEEE [L21E] ?
Result block: 4.73

Query block: What measured protein stability index goes with ENLFTGEDLDELEEELNTLDLEN [E23N] ?
Result block: 5.51

Query block: // protein stability index lookup, key: ENLFTGEDLDELEMELNTLDLEE [E14M]
Result block: 3.55

Query block: Need protein stability index of ENNFTGEDLDELEEELNTLDLEE [L3N] , thanks.
Result block: 4.8
